# method_notes: in vivo
# condition_summary: rats, single intragastric 15 mg/kg, plasma
Vd values for the compounds below.
Give me the value, and tack the unit on after it.

[
  {
    "compound": "C=C(C)C1CCC(C)=CC1c1c(O)cc(CCCCC)cc1OC(=O)NC (stereo not drawn)",
    "Vd": "319.94 ± 171.55 L/kg"
  }
]

Enquiry: Which Vd value belongs to C=C(C)C1CCC(C)=CC1c1c(O)cc(CCCCC)cc1OC(=O)N(C)Cc1ccc(Cl)cc1 (stereo not drawn) ?
Return: 91.52 ± 22.81 L/kg

Enquiry: What about C=C(C)C1CCC(C)=CC1c1c(O)cc(CCCCC)cc1OC(=O)N(C)CC (stereo not drawn) ?
Return: 99.38 ± 23.95 L/kg

Enquiry: Next up: C=C(C)C1CCC(C)=CC1c1c(O)cc(CCCCC)cc1OC(=O)N1CCCC1 (stereo not drawn)
Return: 320.94 ± 106.75 L/kg

Enquiry: Also need C=C(C)[C@@H]1CCC(C)=C[C@H]1c1c(O)cc(CCCCC)cc1O [L1→CBD] , thanks.
Return: 577.46 ± 442.26 L/kg

Enquiry: Entry to check: C=C(C)[C@@H]1CCC(C)=C[C@H]1c1c(O)cc(CCCCC)cc1O [CBD, Cannabidiol, reference compound]
Return: 474.16 ± 155.23 L/kg

====

# method_notes: in vivo
# condition_summary: male, SD, rat, in vivo, po, 15 mg/kg
Reported AUC values for the following compounds.
Respond with the bare value in ng·h/mL.

Consider the reported AUC for these compounds:
[
  {
    "compound": "C=C(C)C1CCC(C)=CC1c1c(O)cc(CCCCC)cc1OC(=O)N1CCCC1 (stereo not drawn)",
    "value_measured": 182
  },
  {
    "compound": "C=C(C)[C@@H]1CCC(C)=C[C@H]1c1c(O)cc(CCCCC)cc1O [CBD, Cannabidiol, reference compound]",
    "value_measured": 158
  }
]

Then there is this compound:
Enquiry: Item C=C(C)C1CCC(C)=CC1c1c(O)cc(CCCCC)cc1OC(=O)NC (stereo not drawn) has what recorded AUC?
Return: 191

====

Entries and their measured Kp follow.
# method_notes: in vivo
# condition_summary: male, SD, rat, in vivo, po, Kp liver, AUCtissue/AUCplasma, rats
Please give only the number in your answer, with no unit.

[
  {
    "molecule": "C=C(C)C1CCC(C)=CC1c1c(O)cc(CCCCC)cc1OC(=O)N(C)Cc1ccc(Cl)cc1 (centres unmarked)",
    "value_measured": 10.1
  }
]

Enquiry: Fill in the blank: the reported Kp of C=C(C)C1CCC(C)=CC1c1c(O)cc(CCCCC)cc1OC(=O)N(C)CC (centres unmarked) is ____.
Return: 5.3

====

# method_notes: in vivo
# condition_summary: male, SD, rat, in vivo, po, 15 mg/kg
The following compounds are shown together with reported Cmax values.
Kindly answer with a numeric value in ng/g, unit omitted.

[
  {
    "compound": "C=C(C)C1CCC(C)=CC1c1c(O)cc(CCCCC)cc1OC(=O)N(C)CC (centres unmarked)",
    "unit_text": "ng/g",
    "Cmax": 56
  }
]

Please find the next compound below.
Enquiry: What does the data say about its Cmax? Entry: C=C(C)C1CCC(C)=CC1c1c(O)cc(CCCCC)cc1OC(=O)N(C)Cc1ccc(Cl)cc1 (centres unmarked)
Return: 19

The measurements presented in this section are drawn from paper PMC11593952.
